Molecular target: MERTK (UniProt Q12866)
Sequence (Q12866 whole entry, looked up): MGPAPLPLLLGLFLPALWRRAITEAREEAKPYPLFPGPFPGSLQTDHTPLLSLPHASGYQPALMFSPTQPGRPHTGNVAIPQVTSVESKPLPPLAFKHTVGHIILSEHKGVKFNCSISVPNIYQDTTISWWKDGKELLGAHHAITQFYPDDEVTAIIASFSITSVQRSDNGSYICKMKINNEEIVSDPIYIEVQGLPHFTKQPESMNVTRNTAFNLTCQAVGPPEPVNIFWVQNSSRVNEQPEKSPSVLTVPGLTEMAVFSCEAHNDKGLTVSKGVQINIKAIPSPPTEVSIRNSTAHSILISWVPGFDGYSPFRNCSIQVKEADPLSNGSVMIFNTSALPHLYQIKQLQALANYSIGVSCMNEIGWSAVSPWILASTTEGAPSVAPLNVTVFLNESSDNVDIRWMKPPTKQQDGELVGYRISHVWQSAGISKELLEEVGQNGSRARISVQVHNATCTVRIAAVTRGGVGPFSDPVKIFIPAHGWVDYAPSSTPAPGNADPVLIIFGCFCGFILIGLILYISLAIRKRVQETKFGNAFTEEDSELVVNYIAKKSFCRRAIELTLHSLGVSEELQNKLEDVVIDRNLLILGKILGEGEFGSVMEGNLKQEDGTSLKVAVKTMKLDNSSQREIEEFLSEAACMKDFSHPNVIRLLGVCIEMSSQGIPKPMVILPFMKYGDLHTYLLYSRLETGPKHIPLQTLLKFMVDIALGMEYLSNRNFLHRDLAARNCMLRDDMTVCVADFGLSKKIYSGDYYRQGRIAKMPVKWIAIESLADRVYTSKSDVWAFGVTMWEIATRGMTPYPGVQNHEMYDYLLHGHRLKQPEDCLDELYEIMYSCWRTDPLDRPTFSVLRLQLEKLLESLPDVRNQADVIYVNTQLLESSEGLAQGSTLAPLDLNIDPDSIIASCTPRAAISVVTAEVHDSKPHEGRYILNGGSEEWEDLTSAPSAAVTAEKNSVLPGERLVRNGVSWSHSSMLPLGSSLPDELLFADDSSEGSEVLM
Experiment: phosphorylation enrichment, bacterial display (enrichment ratio); higher = better substrate or ligand; peptides without Tyr show the background
Recorded phosphorylation enrichment determines the group label, using lower range = under 0.4, middle range = from 0.4 up to 0.6, upper range = 0.6 and over

INSERT INTO results (residue_string, group_label) VALUES
  ('DDSNLYINVKL [MTHFD1_Y52]', 'middle range'),
  ('YEEDSYVKRSQ [RET_Y905]', 'middle range'),
  ('LFQAKYQIRFR [CRLF1_Y272_YF]', 'upper range'),
  ('QCTSAYPLQPE [NANS_Y188]', 'upper range'),
  ('VSTKVYKRFPS [BEST1_Y148_A146K]', 'lower range'),
  ('GGGGSYNNFGN [HNRNPA1_Y312_D314N]', 'lower range'),
  ('NYRPGYNNFYN [USH2A_Y467]', 'middle range'),
  ('FDDIAYIQKTL [PIK3CA_Y1021_R1023Q]', 'middle range'),
  ('KLADMYGGGKD [CDH1_Y876_E880K]', 'lower range'),
  ('QEVLEYFMKQM [PIK3CA_Y1038_A1035V]', 'upper range');

---

Target: FGFR3 (UniProt P22607)
Sequence (P22607 whole entry, looked up): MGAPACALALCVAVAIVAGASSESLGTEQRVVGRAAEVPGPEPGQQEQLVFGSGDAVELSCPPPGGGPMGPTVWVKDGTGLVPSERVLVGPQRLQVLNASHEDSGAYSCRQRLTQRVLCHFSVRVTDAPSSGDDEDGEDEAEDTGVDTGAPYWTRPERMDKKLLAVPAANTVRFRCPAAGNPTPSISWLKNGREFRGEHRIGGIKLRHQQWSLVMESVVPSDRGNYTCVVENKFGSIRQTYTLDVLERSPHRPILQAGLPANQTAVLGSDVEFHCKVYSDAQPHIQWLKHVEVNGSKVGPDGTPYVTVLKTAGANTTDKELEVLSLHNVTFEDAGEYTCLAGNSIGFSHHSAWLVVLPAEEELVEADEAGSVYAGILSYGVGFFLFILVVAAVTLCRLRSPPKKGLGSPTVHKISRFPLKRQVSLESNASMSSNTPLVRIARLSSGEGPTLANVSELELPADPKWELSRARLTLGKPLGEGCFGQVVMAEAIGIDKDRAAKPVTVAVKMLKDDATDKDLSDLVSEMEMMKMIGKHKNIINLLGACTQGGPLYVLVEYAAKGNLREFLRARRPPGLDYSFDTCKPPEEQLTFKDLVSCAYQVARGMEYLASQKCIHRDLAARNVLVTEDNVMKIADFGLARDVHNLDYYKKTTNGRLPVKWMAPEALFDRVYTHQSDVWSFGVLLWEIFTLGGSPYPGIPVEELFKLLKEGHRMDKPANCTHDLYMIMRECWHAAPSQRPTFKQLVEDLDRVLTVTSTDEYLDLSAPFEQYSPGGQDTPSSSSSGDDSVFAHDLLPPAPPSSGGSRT
Experiment: phosphorylation enrichment, bacterial display (enrichment ratio); higher = better substrate or ligand; peptides without Tyr show the background
Mark Y for reported phosphorylation enrichment of 0.6 or greater; mark N for anything smaller.

INSERT INTO measurements (residue_string, group_label) VALUES
  ('PQDSAYHSGIQ [FLG_Y3940_S3935P]', 'N'),
  ('PYRSIYFSSPK [MPG_Y75]', 'Y'),
  ('SKHRLYSDLQT [PTCHD1_Y84]', 'N'),
  ('TEDAEYDVQSK [PTCHD3_Y335_P333A]', 'Y'),
  ('CTTIHYNYTCN [TP53_Y234_M237T]', 'Y'),
  ('GIYSGYDDAWD [POLR1C_Y36_N32I]', 'Y'),
  ('LLINKYGLSDH [SCP2_Y151_A155D]', 'Y'),
  ('VIEYSYTSADG [DHCR7_Y382_C380Y]', 'Y'),
  ('HLQDEYDFKCK [STAT1_Y170_D165H]', 'Y'),
  ('EREYKYGAHNY [OAT_Y50]', 'N'),
  ('AGGTRYRYVSQ [UCN3_Y95_R91G]', 'N');

---

Target: SHP2-C SH2;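 further: peptide library displayed on the E. coli surface as eCPX fusions, selected cells deep-sequenced, score is each peptide's frequency after selection divided by its frequency in the input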
Test: SH2 binding enrichment of the phosphorylated peptide, bacterial display (enrichment ratio); higher = better substrate or ligand; peptides without Tyr show the background
Mark 1 for reported SH2 binding enrichment of 0.8 or greater; mark -1 for anything smaller.

INSERT INTO measurements (residue_string, group_label) VALUES
  ('EKAEVYGSENE [RIOK2_Y348]', -1),
  ('FRPHLYGTPSR [ADGRE2_Y670_S665F]', 1),
  ('RREWYYEVIIV [BACE1_Y260]', -1),
  ('PTYKHYANSTQ [SLC12A3_Y70_E68K]', -1),
  ('SLVVPYEPPEV [TP53_Y220_V216L]', -1),
  ('LHQSTYQRFDV [SLC7A14_Y693_YF]', -1),
  ('RGFRQDAFDGK [HLA-A_Y140_YF]', 1),
  ('NTGDDYDLFGG [PTPN11_Y63_Y62D_YF]', -1),
  ('LQTYRYHGHSM [PDHA1_Y289]', -1),
  ('ADKAAYLQNLN [MYH1_Y389]', -1),
  ('VFSATYHPDHW [EFCAB12_Y544_P541S_YF]', -1),
  ('NYRPGYNNFYN [USH2A_Y467]', 1),
  ('AAQNCYKVTNA [TPI1_Y105_G110A]', -1),
  ('EKLQKYYRKNP [EHHADH_Y682_Q685K]', 1),
  ('EQQRAYLEGTC [HLA-C_Y183_L180Q]', -1),
  ('DFCDLYGGEKF [PTPN11_Y66_Y63C_YF]', -1),
  ('GLDGSYLLTDS [SH2D1A_Y29_R32T]', -1),
  ('RPSELYFSKIS [SMG1_Y2253_G2258S_YF]', -1),
  ('IRNRDYDDIDD [TTYH2_Y424_T419I]', -1),
  ('ASIVDYNIIGW [MYH7_Y588_G584S]', -1),
  ('RYFTTYDTNGR [CLCA1_Y665]', 1),
  ('GETEQYVGGGG [FAT4_Y4980_A4977T]', -1),
  ('IGMLIYFARKA [VCAM1_Y718_I716L]', 1),
  ('YRAVKYLQMVG [AVPR2_Y117_C112Y]', 1),
  ('PSRKDYETFQP [CTNND2_Y1154_YF]', -1),
  ('PNRILYGDFRQ [MYH6_Y717]', 1),
  ('LAETSYVTVLE [MAGEA1_Y276_K278T]', 1),
  ('FSGQVYRQRRK [TH_Y230_D227G]', -1),
  ('KKRSVYIKVLF [CC2D2A_Y683_L684I]', -1),
  ('FHLLPYTVRAM [PARS2_Y93_YF]', 1),
  ('GIVEDYRPRFF [ACVRL1_Y421_P424R_YF]', 1),
  ('DIMDLYNQPEP [IL36A_Y96]', -1),
  ('AGGTRYRYVSQ [UCN3_Y95_R91G]', -1),
  ('TLKVGYTEKQR [EPHA3_Y659]', -1),
  ('LPQDGYRIVQH [PTPRT_Y1329_R1324L]', -1),
  ('MDFRSYPREFG [RBM10_Y44_YF]', 1),
  ('DLLMQHPKAQG [FAM83C_Y600_Y600H]', 1),
  ('EPNSRYTCKLE [USH2A_Y3745_Y3747C]', 1),
  ('KRELRYMHSRV [ABCD1_Y281_G277R]', 1),
  ('WHHTFYNELCV [ACTC1_Y93_R97C]', -1),
  ('EWKQNYEESQS [MYH7_Y1460_K1459N]', -1),
  ('FETDFYRKGGK [INSR_Y1190_YF]', -1),
  ('AVLSLYASGST [ACTG2_Y144_R148S]', 1),
  ('EQSGSYIWVLA [DLG1_Y895_P899L]', -1),
  ('LARDIYKNDFF [ROS1_Y2110_YF]', -1),
  ('YEEDSYVKRSQ [RET_Y905]', -1),
  ('GGFSRYDEGSG [RECQL5_Y484_D480G]', -1),
  ('YTHSDYQYSQR [PKP2_Y166]', -1),
  ('MIRSAYALRGL [CPS1_Y590_G593R]', -1),
  ('KELAKYYKLHH [AK7_Y390_N389K]', -1);
